These data points were gathered from paper PMC8698469.

Molecular target: T1, human mitochondrial superoxide dismutase (SOD2), His-tag recombinant protein (human, UniProt P04179 25-222)
T1 construct: Trp residues are printed as W78, W123, W125, W161, W181, W186; also called Mn-SOD; (SOD2)4; source: bought: Technical Novusbio (His-tag recombinant protein)
T1 sequence: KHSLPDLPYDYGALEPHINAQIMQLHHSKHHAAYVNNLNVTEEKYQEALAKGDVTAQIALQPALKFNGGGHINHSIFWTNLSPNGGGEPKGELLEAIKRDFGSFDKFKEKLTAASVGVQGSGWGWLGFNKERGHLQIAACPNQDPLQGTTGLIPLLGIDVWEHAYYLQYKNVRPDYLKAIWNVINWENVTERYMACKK
Experiment: SDSL-EPR (EPR spectra of spin-labelled protein, fitted rotational correlation time); both in solution; 10 uM spin-labelled FXN mutant without or with 40 uM SOD2 (FXN:(SOD2)4 1:1; also 1:0.5), room temperature, 18 uL SOD buffer (20 mM Tris HCl pH 8, 20% v/v glycerol) or SOD2 stock with 2 uL FXN stock, under nitrogen flow
Details: both partners purified
ASSAY METRIC: ΔτC (τC^+SOD − τC^−SOD)

Below, 3 binders whose answers are already recorded.
# BINDER, ΔτC (τC^+SOD − τC^−SOD)
rows = [
    ("human FXN(90-210) T133C, spin-labelled with M-TETPO (domain or fragment, UniProt Q16595 90-210, looked up, M-TETPO nitroxide spin label on cysteine 133, human frataxin, residues 90-210, native residue mutated to cysteine for spin labelling; source: E. coli BL21 (DE3), purified (DEAE Sepharose ion exchange, SEC), labelled with M-TETPO) LDETTYERLAEETLDSLAEFFEDLADKPYTFEDYDVSFGSGVLCVKLGGDLGTYVINKQTPNKQIWLSSPSSGPKRYDWTGKNWVYSHDGVSLHELLAAELTKALKTKLDLSSLAYSGKDA", "0.4 ns"),
    ("human FXN(90-210) H183C, spin-labelled with M-TETPO (domain or fragment, UniProt Q16595 90-210, looked up, M-TETPO nitroxide spin label on cysteine 183, human frataxin, residues 90-210, native residue mutated to cysteine for spin labelling; source: E. coli BL21 (DE3), purified (DEAE Sepharose ion exchange, SEC), labelled with M-TETPO) LDETTYERLAEETLDSLAEFFEDLADKPYTFEDYDVSFGSGVLTVKLGGDLGTYVINKQTPNKQIWLSSPSSGPKRYDWTGKNWVYSHDGVSLCELLAAELTKALKTKLDLSSLAYSGKDA", "0.56 ns"),
    ("human FXN(90-210) A193C, spin-labelled with M-TETPO (domain or fragment, UniProt Q16595 90-210, looked up, M-TETPO nitroxide spin label on cysteine 193, human frataxin, residues 90-210, native residue mutated to cysteine for spin labelling; source: E. coli BL21 (DE3), purified (DEAE Sepharose ion exchange, SEC), labelled with M-TETPO) LDETTYERLAEETLDSLAEFFEDLADKPYTFEDYDVSFGSGVLTVKLGGDLGTYVINKQTPNKQIWLSSPSSGPKRYDWTGKNWVYSHDGVSLHELLAAELTKCLKTKLDLSSLAYSGKDA", "0.41 ns"),
]

What value of ΔτC (τC^+SOD − τC^−SOD) has been reported for the following binder? human FXN(90-210) A114C, spin-labelled with M-TETPO (domain or fragment, UniProt Q16595 90-210, looked up, M-TETPO nitroxide spin label on cysteine 114, human frataxin, residues 90-210, native residue mutated to cysteine for spin labelling; source: E. coli BL21 (DE3), purified (DEAE Sepharose ion exchange, SEC), labelled with M-TETPO) LDETTYERLAEETLDSLAEFFEDLCDKPYTFEDYDVSFGSGVLTVKLGGDLGTYVINKQTPNKQIWLSSPSSGPKRYDWTGKNWVYSHDGVSLHELLAAELTKALKTKLDLSSLAYSGKDA
0.44 ns
